All figures here come from patent US20040102431A1.

- testedSystem: plasmepsin II (Plasmodium falciparum)
- experimentalProtocol: biochemical
- appliedConditions: […]; FRET, pH 5, 37° C., 40 min, substrate 1 μM; read-out: IC50 (nM) on plasmepsin II
What IC50 was measured for each of the following?
I only need the number, in nM, no unit after it.

Ask: Fill in reported IC50 for this entry: CCCCCc1ccc(C(=O)N(Cc2ccc(OCc3ccccc3)c(OCc3ccccc3)c2)C2CCN(Cc3ccccc3)CC2)cc1 [Example 10]
Reply: 1200

Ask: Identify measured IC50 corresponding to CCCCCc1ccc(C(=O)N(Cc2ccc(Oc3ccccc3)cc2)C2CCN(Cc3ccccc3)CC2)cc1 [Example 7]
Reply: 462

Ask: Read the entry CCCCCCCCCCCC(=O)N(Cc1ccc(OCc2ccccc2)cc1)C1CCN(Cc2ccccc2)CC1 [Example 6] and write its reported IC50.
Reply: 1800

Ask: Tell me IC50 reported for CCCCCCCCCCCC(=O)N(Cc1ccc(Oc2ccccc2)cc1)C1CCN(Cc2ccccc2)CC1 [Example 9]
Reply: 1700

Ask: Indicate the recorded IC50 value for this compound: CCCCCCCCCCCC(=O)N(Cc1ccc(-c2ccccc2)cc1)C1CCN(Cc2ccccc2)CC1 [Example 16]
Reply: 1300

Ask: Supply measured IC50 of CCCCOc1ccc(C(=O)N(Cc2ccc(OCc3ccccc3)cc2)C2CCN(Cc3ccccc3)CC2)cc1 [Example 3] in your reply.
Reply: 1700

Ask: Read off the recorded IC50 for CCCCCCCCCCCC(=O)N(Cc1ccc(OCc2ccccc2)c(OCc2ccccc2)c1)C1CCN(Cc2ccccc2)CC1 [Example 13]
Reply: 2400

Ask: Given CCCCCc1ccc(C(=O)N(Cc2ccc(-c3ccc(C#N)cc3)cc2)C2CCN(Cc3ccoc3)CC2)cc1 [Example 32] , respond with its IC50.
Reply: 18

---

Assign IC50 to each entry below.
- testedSystem: plasmepsin II (Plasmodium falciparum, UniProt P46925)
- Sequence (P46925 125-453): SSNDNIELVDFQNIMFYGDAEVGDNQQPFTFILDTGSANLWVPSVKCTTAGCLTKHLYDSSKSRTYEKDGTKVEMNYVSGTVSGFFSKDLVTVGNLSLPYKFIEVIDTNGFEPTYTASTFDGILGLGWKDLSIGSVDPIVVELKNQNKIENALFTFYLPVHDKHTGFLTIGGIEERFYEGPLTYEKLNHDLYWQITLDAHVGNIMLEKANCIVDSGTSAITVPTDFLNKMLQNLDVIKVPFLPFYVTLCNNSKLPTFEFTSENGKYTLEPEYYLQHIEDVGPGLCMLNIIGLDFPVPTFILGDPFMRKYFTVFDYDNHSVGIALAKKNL
- experimentalProtocol: biochemical
- appliedConditions: Additional Examples table; FRET, pH 5, 37° C., 40 min, substrate 1 μM; read-out: IC50 (nM) on plasmepsin II
Only the number, expressed in nM, is required.

Ask: Give the reported IC50 for this molecule. CCCCCc1ccc(C(=O)N(Cc2ccc(OCC)cc2)C2CCN(Cc3ccccc3)CC2)cc1
Reply: 284

Ask: Specify reported IC50 for the molecule shown: CCCCCc1ccc(CN(Cc2ccc(OCc3ccc(F)cc3)cc2)C2CCN(Cc3ccccc3)CC2)cc1
Reply: 414

Ask: Recall and state the measured IC50 for CCCCCc1ccc(CN(Cc2ccc(OCc3ccccc3)cc2)C2CCN(Cc3ccccc3)CC2)cc1 .
Reply: 431

Ask: For the molecule CCCCCc1ccc(C(=O)N(Cc2ccc(OC(C)C)cc2)C2CCN(Cc3ccccc3)CC2)cc1 , report IC50.
Reply: 204

Ask: Output IC50 of CCCCCc1ccc(C(=O)N(C2CCN(Cc3ccccc3)CC2)[C@H](CO)Cc2ccc(OCc3ccccc3)cc2)cc1
Reply: 749

Ask: Please report the measured IC50 for CCCCCc1ccc(CN(Cc2ccc(-c3cccc(C(F)(F)F)c3)cc2)C2CCN(Cc3ccccc3)CC2)cc1
Reply: 634

Ask: # return recorded IC50 for input CCCCCC12CCC(C(=O)N(Cc3ccc(-c4ccccc4)cc3)C3CCN(Cc4ccccc4)CC3)(CC1)CC2
Reply: 942

---

- testedSystem: UniProt:P46925
- experimentalProtocol: biochemical
- appliedConditions: Additional Examples table; FRET, pH 5, 37° C., 40 min, substrate 1 μM; read-out: IC50 (nM) on plasmepsin II
Can you tell me IC50 for the items I'm about to list?
Respond numerically; units are nM and should not be typed.

Ask: Please report the measured IC50 for CCCCCc1ccc(C(=O)N(Cc2ccc(-c3ccc(OCCO)cc3)cc2)C2CCN(Cc3ccncc3)CC2)cc1 [Example 44]
Reply: 39

Ask: Supply measured IC50 of CCCCCc1ccc(C(=O)N(Cc2ccc(-c3ccc(C#N)cc3)cc2)C2CCN(CC3=CCCCC3)CC2)cc1 [Example 40] in your reply.
Reply: 25

Ask: Output IC50 of CCCCCc1ccc(C(=O)N(Cc2ccc(-c3ccccc3Cl)cc2)C2CCN(Cc3ccccc3)CC2)cc1 [Example 68]
Reply: 120

Ask: Give the reported IC50 for this molecule. CCCCCc1ccc(C(=O)N(Cc2ccc(-c3ccccn3)cc2)C2CCN(Cc3ccncc3)CC2)cc1 [Example 79]
Reply: 176
